SYSTEM_UNDER_TEST: UniProt:Q9H7B4
Sequence (Q9H7B4 whole entry): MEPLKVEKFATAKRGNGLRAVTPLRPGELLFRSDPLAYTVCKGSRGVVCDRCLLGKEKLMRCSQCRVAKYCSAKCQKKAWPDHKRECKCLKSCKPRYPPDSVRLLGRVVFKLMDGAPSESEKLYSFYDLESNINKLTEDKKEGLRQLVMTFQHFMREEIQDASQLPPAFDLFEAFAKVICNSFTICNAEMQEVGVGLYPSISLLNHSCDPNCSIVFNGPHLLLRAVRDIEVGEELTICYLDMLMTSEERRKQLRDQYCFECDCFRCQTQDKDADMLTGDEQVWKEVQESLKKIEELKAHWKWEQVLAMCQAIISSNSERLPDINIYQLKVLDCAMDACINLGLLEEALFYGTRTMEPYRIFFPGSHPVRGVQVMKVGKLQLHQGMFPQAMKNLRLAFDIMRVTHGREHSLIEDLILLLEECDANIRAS
ASSAY_EXPLANATION: SMYD3 biochemical assay (SMYD3 enzyme assay on MEKK2 protein substrate, 3H-SAM scintillation proximity assay)
ASSAY_CONDITIONS: Table 3A; average of n = 1 to n = 50; read-out: SMYD3 Biochem IC50
pIC50: −log10 of the molar value.
// FALSE strictly below 8 in pIC50; TRUE otherwise

Quick check: does NC1CCN(S(=O)(=O)N2[C@@H]3CC[C@H]2C[C@@H](NC(=O)c2ccc4c(c2)OCC(=O)N4)C3)CC1 [compound 636] have pIC50 greater than or equal to 8?
FALSE

Please indicate if the recorded pIC50 for NC1CCC(S(=O)(=O)N2[C@@H]3CC[C@H]2C[C@@H](NC(=O)c2ccc4c(c2)OC(F)(F)O4)C3)CC1 (stereo partly shown) [Cpd. No. 622] meets or exceeds 8.
FALSE

Is pIC50 for N[C@H]1CC[C@H](S(=O)(=O)N2[C@@H]3CC[C@H]2C[C@@H](NC(=O)c2cc4c(cc2Cl)NC(=O)C4)C3)CC1 [compound 583] at or above 8?
TRUE

Hi team, for C[C@H]1C[C@@H](NC(=O)c2cc3c(cc2Cl)NC(=O)C3)CCN1S(=O)(=O)c1ccc(C(C)(C)N)cc1 [compound 588] , is the recorded pIC50 at or above 8?
TRUE

Given the entry NC1CCN(S(=O)(=O)N2[C@@H]3CC[C@H]2C[C@@H](NC(=O)c2cc(C4CC4)no2)C3)CC1 [compound 644] , answer whether its pIC50 meets or surpasses 8.
FALSE

Determine whether measured pIC50 meets or exceeds 8 for CN1C(=O)Cc2cc(C(=O)N[C@H]3C[C@H]4CC[C@@H](C3)N4S(=O)(=O)CC3CCNCC3)ccc21 [compound 611]
FALSE

Reported pIC50 reaches at least 8 for C[C@H]1C[C@H](NC(=O)c2nnc(C3CC3)s2)CCN1S(=O)(=O)N1CCC(N)CC1 [compound 631] ?
FALSE

###

SYSTEM_UNDER_TEST: UniProt Q9H7B4
ASSAY_EXPLANATION: SMYD3 cell assay (Trimethyl-MEKK2 In-Cell Western in 293T/17 cells transfected with MEKK2-flag and SMYD3)
Type: cell-based
ASSAY_CONDITIONS: Table 3A; average of n = 1 to n = 50; read-out: SMYD3 cell IC50
pIC50: −log10 of the molar value.
Everything with pIC50 lower than 6 is -1; everything else, including exactly 6, is 1.

{"columns": ["MOLECULE", "DISCRETE_LABEL"],
 "data": [
  ["CC(=O)Nc1ccc(S(=O)(=O)N2CCC(NC(=O)c3ccc4c(c3)CC(=O)N4)CC2)cc1", -1],
  ["NC1CCN(S(=O)(=O)N2[C@@H]3CC[C@H]2C[C@@H](NC(=O)c2ccc4c(c2)OC(F)(F)O4)C3)CC1", -1],
  ["NC1CCN(S(=O)(=O)N2[C@@H]3CC[C@H]2C[C@@H](NC(=O)c2nnc(C4CC4)s2)C3)CC1", 1],
  ["CCc1cccc(C(=O)N[C@H]2C[C@H]3CC[C@@H](C2)N3S(=O)(=O)CC2CCNCC2)c1", -1],
  ["CN1C(=O)Cc2cc(C(=O)N[C@H]3C[C@H]4CC[C@@H](C3)N4S(=O)(=O)CC3CCNCC3)c(Cl)cc21", -1]
]}

Now for another entry.
Would you say `C[C@H]1C[C@@H](NC(=O)c2ccc3c(c2)CC(=O)N3)CCN1S(=O)(=O)CC1CCNCC1` shows pIC50 at minimum 6?
-1

All values here come from patent US10266526B2.
